- system-name: recombinant CYP2C9*1 (Homo sapiens, UniProt P11712)
readout-kind: Km (µM)
Write down the numeric answer in µM and omit the unit.

Q: Request - read-out Km | tested on recombinant CYP2C9*1 (Homo sapiens, UniProt P11712) | molecule "CC(=O)C[C@@H](c1ccccc1)c1c(O)c2ccccc2oc1=O"
A: 3.3

====

- system-name: CYP2C9 present in the human liver microsomes (Homo sapiens)
- Sequence (P11712 whole entry): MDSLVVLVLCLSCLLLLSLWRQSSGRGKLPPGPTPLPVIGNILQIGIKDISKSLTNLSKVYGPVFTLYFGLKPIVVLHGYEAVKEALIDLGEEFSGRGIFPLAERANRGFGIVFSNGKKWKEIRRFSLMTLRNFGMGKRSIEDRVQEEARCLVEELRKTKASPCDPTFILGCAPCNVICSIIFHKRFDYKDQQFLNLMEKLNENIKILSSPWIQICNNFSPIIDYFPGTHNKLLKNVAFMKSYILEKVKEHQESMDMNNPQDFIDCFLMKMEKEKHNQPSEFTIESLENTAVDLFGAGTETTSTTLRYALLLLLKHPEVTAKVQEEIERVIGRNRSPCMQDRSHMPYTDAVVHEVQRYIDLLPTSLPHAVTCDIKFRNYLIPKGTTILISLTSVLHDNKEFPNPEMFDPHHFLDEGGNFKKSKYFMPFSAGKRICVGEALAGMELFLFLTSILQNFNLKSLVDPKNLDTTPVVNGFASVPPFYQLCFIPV
- Format: biochemical
- recorded-conditions: human liver microsomes; marker Km

molecule | Ki fold above the Km for S-warfarin
CC(=O)CC(c1ccccc1)c1c(O)c2ccc(O)cc2oc1=O (stereo not shown) [7OHWAR, 7-hydroxywarfarin] | 8.5 fold
CC(=O)CC(c1ccc(O)cc1)c1c(O)c2ccccc2oc1=O (stereo not shown) [4′OHWAR, 4′-hydroxywarfarin] | approximately 3 fold
CC(=O)CC(c1ccccc1)c1c(O)c2cccc(O)c2oc1=O (stereo not shown) [8OHWAR, 8-hydroxywarfarin] | approximately 3 fold

====

- system-name: pooled human liver microsomes (Homo sapiens, UniProt P11712)
readout-kind: Km (µM)
Unit µM implied. Number only.

Q: Notebook entry, pooled human liver microsomes (Homo sapiens, UniProt P11712) assay: Km of "CC(=O)C[C@@H](c1ccccc1)c1c(O)c2ccccc2oc1=O" = ?
A: 7.5
